assay: recombinant UMI read abundance after kanamycin selection (control-corrected) (log10(CPM+1)); higher = more efficient recombination; extreme values may be limits of the assay; sequences stand for … in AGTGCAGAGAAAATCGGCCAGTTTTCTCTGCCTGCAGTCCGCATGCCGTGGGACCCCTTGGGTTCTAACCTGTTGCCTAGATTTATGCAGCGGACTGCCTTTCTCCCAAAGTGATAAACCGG…AGGTTGGTTTCACT; site = the 11-nt donor
Returns one of satisfied or not satisfied; satisfied when recombinant UMI read abundance (log10) is >= 0.05.

Examples with answers:
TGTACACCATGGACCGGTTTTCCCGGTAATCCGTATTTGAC (site TGTACTCCTGT): not satisfied
GTTGCTCCATGGACCGGTTTTCCCGGTAATCCGTATTTGGT (site GTTGGTCCTAC): not satisfied
ACAGTATCATGGACCGGTTTTCCCGGTAATCCGTATTTGTA (site ACAGTATCTTC): satisfied
ATAAGGCCATGGACCGGTTTTCCCGGTAATCCGTATTTGAT (site ATAAGGCCTTT): not satisfied
CTGGAAACATGGACCGGTTTTCCCGGTAATCCGTATTTGCT (site CTGGAAACTAG): satisfied

**Query** Kindly determine if recombinant UMI read abundance (log10) recorded for CGATCAACATGGACCGGTTTTCCCGGTAATCCGTATTTGCG (site CGATCAACTCG) is above or exactly 0.05.
**Result** satisfied

**Query** Try TATTTGGCATGGACCGGTTTTCCCGGTAATCCGTATTTGCG (site TATTTGGCTCT) next.
**Result** not satisfied

**Query** Try CGGTCTGCATGGACCGGTTTTCCCGGTAATCCGTATTTGAG (site CGGTCTGCTCT) next.
**Result** satisfied

**Query** Try GGTACCTCATGGACCGGTTTTCCCGGTAATCCGTATTTGTT (site GGTACGTCTAA) next.
**Result** not satisfied

###

assay: recombinant barcode read abundance after kanamycin selection (control-corrected) (log10(CPM+1)); higher = more efficient recombination; sequences stand for … in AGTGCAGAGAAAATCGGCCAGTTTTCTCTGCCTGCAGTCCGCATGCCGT…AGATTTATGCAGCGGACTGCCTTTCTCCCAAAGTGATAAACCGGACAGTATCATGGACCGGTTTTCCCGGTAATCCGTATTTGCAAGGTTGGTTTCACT; site = the 11-nt target
Catalogue of sequences with associated recombinant barcode read abundance (log10)

TAGTCCACTTGGGTTCTAACCTGTTGCGC (site TAGTCCACTGC): 1.98
GGGCACTCTTGGGTTCTAACCTGTTGCAT (site GGGCACTCTAC): 0.132
TCGCCTACTTGGGTTCTAACCTGTTGCCG (site TCGCCTACTCG): 0.19
CTAGGCCCTTGGGTTCTAACCTGTTGCGT (site CTAGGCCCTAA): 0.361
CATGAGCCTTGGGTTCTAACCTGTTGCCT (site CATGAGCCTAG): 2.23
AGTACAACTTGGGTTCTAACCTGTTGCCT (site AGCACAACTAG): 0.153

Moving on to the next sequence.
**Query** recombinant barcode read abundance (log10) for GAGCGCTCTTGGGTTCTAACCTGTTGCTG (site GAGCGCTCTAA) ?
**Result** 0.0574

###

assay: recombinant UMI read abundance after kanamycin selection (control-corrected) (log10(CPM+1)); higher = more efficient recombination; extreme values may be limits of the assay; sequences stand for … in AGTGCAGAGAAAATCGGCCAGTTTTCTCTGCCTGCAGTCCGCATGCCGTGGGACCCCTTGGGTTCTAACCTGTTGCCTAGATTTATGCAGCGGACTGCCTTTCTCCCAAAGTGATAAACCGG…AGGTTGGTTTCACT; site = the 11-nt donor
Returns one of YES or NO; YES when recombinant UMI read abundance (log10) is >= 0.8.

**Query** Kindly determine if recombinant UMI read abundance (log10) recorded for CCGAAACCATGGACCGGTTTTCCCGGTAATCCGTATTTGCG (site CCGAAACCTCG) is above or exactly 0.8.
**Result** NO

**Query** Try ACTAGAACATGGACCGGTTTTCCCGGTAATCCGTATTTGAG (site ACAAGAACTCT) next.
**Result** YES

**Query** Try ATTGAGACATGGACCGGTTTTCCCGGTAATCCGTATTTGAT (site ATTGAGACTAA) next.
**Result** NO

**Query** Try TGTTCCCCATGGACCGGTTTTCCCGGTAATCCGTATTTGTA (site TGTTCTCCTTA) next.
**Result** NO

**Query** Try AGTAAGACATGGACCGGTTTTCCCGGTAATCCGTATTTGTC (site AGTAAGACTGA) next.
**Result** YES

###

assay: recombinant UMI read abundance after kanamycin selection (control-corrected) (log10(CPM+1)); higher = more efficient recombination; extreme values may be limits of the assay; sequences stand for … in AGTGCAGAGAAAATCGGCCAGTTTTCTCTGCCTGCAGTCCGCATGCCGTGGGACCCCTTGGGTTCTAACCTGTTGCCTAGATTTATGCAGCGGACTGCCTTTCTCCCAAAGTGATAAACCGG…AGGTTGGTTTCACT; site = the 11-nt donor
Returns one of 1 (yes) or 0 (no); 1 (yes) when recombinant UMI read abundance (log10) is >= 0.02.

Examples with answers:
CCCTACACATGGACCGGTTTTCCCGGTAATCCGTATTTGCT (site CACTACACTAG): 0 (no)
TGTTACCCATGGACCGGTTTTCCCGGTAATCCGTATTTGTA (site TGTTCCCCTTA): 0 (no)
AGCGCGACATGGACCGGTTTTCCCGGTAATCCGTATTTGTG (site AGCGCGACTCA): 1 (yes)
GAAGGTTCATGGACCGGTTTTCCCGGTAATCCGTATTTGTT (site GAAGCTTCTAA): 0 (no)

**Query** Kindly determine if recombinant UMI read abundance (log10) recorded for GGCAACCCATGGACCGGTTTTCCCGGTAATCCGTATTTGAA (site GGCAACCCTTT) is above or exactly 0.02.
**Result** 1 (yes)

**Query** Try TAAGATTCATGGACCGGTTTTCCCGGTAATCCGTATTTGTT (site CAAGATTCTAA) next.
**Result** 1 (yes)

**Query** Try GCGAAAGCATGGACCGGTTTTCCCGGTAATCCGTATTTGCT (site GCGAAAGCTAG) next.
**Result** 1 (yes)

###

experiment: recombinant UMI read abundance after kanamycin selection (control-corrected) (log10(CPM+1)); higher = more efficient recombination; extreme values may be limits of the assay; sequences stand for … in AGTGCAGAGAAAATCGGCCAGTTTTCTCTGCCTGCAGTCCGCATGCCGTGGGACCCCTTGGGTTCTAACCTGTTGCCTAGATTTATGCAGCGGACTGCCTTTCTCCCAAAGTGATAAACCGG…AGGTTGGTTTCACT; site = the 11-nt donor
Readout kind: recombinant UMI read abundance (log10)
Lab note: jot the number down without any unit.

Example cases with answers are listed next.
TAAGATTCATGGACCGGTTTTCCCGGTAATCCGTATTTGTT (site AAAGATTCTAA): 0
ACAGTACCATGGACCGGTTTTCCCGGTAATCCGTATTTGCA (site ACAGTATCTTG): 1.71
GCTTCCCCATGGACCGGTTTTCCCGGTAATCCGTATTTGAT (site GCTTACCCTAT): 0.0108
AGACGCGCATGGACCGGTTTTCCCGGTAATCCGTATTTGTA (site AGACGCGCTTA): 2.72

Moving on to the next sequence.
**Query** recombinant UMI read abundance (log10) for GATTGGCCATGGACCGGTTTTCCCGGTAATCCGTATTTGCA (site GAGTGGCCTTG) ?
**Result** 0

###

test: recombinant UMI read abundance after kanamycin selection (control-corrected) (log10(CPM+1)); higher = more efficient recombination; extreme values may be limits of the assay; sequences stand for … in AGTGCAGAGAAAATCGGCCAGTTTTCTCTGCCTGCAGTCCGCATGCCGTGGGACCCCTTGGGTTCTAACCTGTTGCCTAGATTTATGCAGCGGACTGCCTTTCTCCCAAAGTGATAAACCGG…AGGTTGGTTTCACT; site = the 11-nt donor
Readout kind: recombinant UMI read abundance (log10)
Lab note: jot the number down without any unit.

CGCGTGTCATGGACCGGTTTTCCCGGTAATCCGTATTTGAC (site CGCGTGTCTGT): 0
CAATCTGCATGGACCGGTTTTCCCGGTAATCCGTATTTGCT (site CAATCTGCTAG): 0.515
TAACTAGCATGGACCGGTTTTCCCGGTAATCCGTATTTGAA (site TAACTAGCTTT): 1.57
CCAGCAGCATGGACCGGTTTTCCCGGTAATCCGTATTTGCT (site CTAGCAGCTAG): 0.0142
AGCCTAGCATGGACCGGTTTTCCCGGTAATCCGTATTTGTC (site AGCCTAGCTGA): 0
CTGCTAACATGGACCGGTTTTCCCGGTAATCCGTATTTGCC (site CTGCTAACTGG): 2.21
CACCCCTCATGGACCGGTTTTCCCGGTAATCCGTATTTGCC (site CACGCCTCTGG): 0
CGCTACACATGGACCGGTTTTCCCGGTAATCCGTATTTGCT (site CACTACACTAG): 1.32

Moving on to the next sequence.
**Query** recombinant UMI read abundance (log10) for GTAGGTTCATGGACCGGTTTTCCCGGTAATCCGTATTTGAC (site GTAGGTTCTGT) ?
**Result** 2.46
